Molecular target: Nociceptin receptor (Homo sapiens)
Assay: Agonist activity at NOP (unknown origin) […] assessed as induction of beta-arrestin2 activation incubated for 15 mins by BRET assay
Type: cell-based, HEK293
pEC50: −log10 of the molar value.
If the reported pEC50 equals or exceeds 7, assign Y. If not, assign N.

Query: Textbook exercise: given the entry H-FGAFTGARKSARK-NH2 , state whether its pEC50 is greater than or equal to 7.
Reply: Y

Query: Textbook exercise: given the entry H-FGGFNGARKSARK-NH2 , state whether its pEC50 is greater than or equal to 7.
Reply: Y

Query: Textbook exercise: given the entry H-FGGFAGARKSARK-NH2 , state whether its pEC50 is greater than or equal to 7.
Reply: N

Query: Textbook exercise: given the entry H-FGGFVGARKSARK-NH2 , state whether its pEC50 is greater than or equal to 7.
Reply: Y

---

Target: Nociceptin receptor (Homo sapiens, UniProt P41146)
Sequence (P41146 whole entry): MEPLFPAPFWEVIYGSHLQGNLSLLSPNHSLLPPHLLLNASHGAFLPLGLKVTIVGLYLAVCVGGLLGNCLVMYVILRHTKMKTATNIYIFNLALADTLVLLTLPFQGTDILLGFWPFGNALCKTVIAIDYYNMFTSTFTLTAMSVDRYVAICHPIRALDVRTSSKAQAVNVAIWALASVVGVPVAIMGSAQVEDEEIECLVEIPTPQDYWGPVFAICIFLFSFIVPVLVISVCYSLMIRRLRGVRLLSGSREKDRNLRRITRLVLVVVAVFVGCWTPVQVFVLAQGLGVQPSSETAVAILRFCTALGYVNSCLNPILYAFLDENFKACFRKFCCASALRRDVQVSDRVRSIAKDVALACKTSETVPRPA
Experiment: Agonist activity at NOP (unknown origin) […] assessed as induction of beta-arrestin2 activation incubated for 15 mins by BRET assay
Type: cell-based, HEK293
Residues, ends and D or L forms follow the SMILES beside them. *: point of attachment. X1 = CCCCCCCCCCCCCCCC(=O)NCCCN1C(=O)CC(*)C1=O
Quick rule for you: EC50 under 20 nM gets Criterion met, anything else gets Criterion not met.

Query: Quick check: does CCCCCCCCCCCCCCCC(=O)NCCCN1C(=O)CC(SC[C@H](NC(=O)[C@H](CCCCN)NC(=O)[C@H](CCCNC(=N)N)NC(=O)[C@H](C)NC(=O)CNC(=O)[C@@H](NC(=O)[C@H](Cc2ccccc2)NC(=O)CNC(=O)CNC(=O)[C@@H](N)Cc2ccccc2)[C@@H](C)O)C(=O)N[C@@H](C)C(=O)N[C@@H](CCCNC(=N)N)C(=O)N[C@@H](CCCCN)C(N)=O)C1=O (stereo not given in full) (H-FGGFTGARKC(X1)ARK-NH2) have EC50 under 20 nM?
Reply: Criterion met

Query: Quick check: does CCCCCCCCCCCCCCCC(=O)NCCCN1C(=O)CC(SC[C@H](NC(=O)[C@H](CCCNC(=N)N)NC(=O)[C@H](C)NC(=O)[C@H](CO)NC(=O)[C@H](CCCCN)NC(=O)[C@H](CCCNC(=N)N)NC(=O)[C@H](C)NC(=O)CNC(=O)[C@@H](NC(=O)[C@H](Cc2ccccc2)NC(=O)CNC(=O)CNC(=O)[C@@H](N)Cc2ccccc2)[C@@H](C)O)C(N)=O)C1=O (stereo not given in full) (H-FGGFTGARKSARC(X1)-NH2) have EC50 under 20 nM?
Reply: Criterion not met

Query: Quick check: does C[C@H](NC(=O)CNC(=O)[C@@H](NC(=O)[C@H](Cc1ccccc1)NC(=O)CNC(=O)CNC(=O)[C@@H](N)Cc1ccccc1)[C@@H](C)O)C(=O)N[C@@H](CCCNC(=N)N)C(=O)N[C@@H](CCCCN)C(=O)N[C@@H](CO)C(=O)N[C@@H](C)C(=O)N[C@@H](CCCNC(=N)N)C(=O)N[C@@H](CCCCN)C(=O)N[C@@H](CSC1CC(=O)N(CCCC(=O)N[C@@H](CCCCN)C(=O)N[C@@H](CCCCN)C(=O)N[C@@H](CCCCN)C(=O)N[C@@H](CCCCN)C(=O)N[C@@H](CCCCN)C(=O)N[C@@H](CCCCN)C(N)=O)C1=O)C(N)=O (stereo not given in full) have EC50 under 20 nM?
Reply: Criterion met

Query: Quick check: does CCCCCCCCCCCCCCCC(=O)NCCCN1C(=O)CC(SC[C@H](NC(=O)[C@H](C)NC(=O)[C@H](CO)NC(=O)[C@H](CCCCN)NC(=O)[C@H](CCCNC(=N)N)NC(=O)[C@H](C)NC(=O)CNC(=O)[C@@H](NC(=O)[C@H](Cc2ccccc2)NC(=O)CNC(=O)CNC(=O)[C@@H](N)Cc2ccccc2)[C@@H](C)O)C(=O)N[C@@H](CCCCN)C(N)=O)C1=O (stereo not given in full) (H-FGGFTGARKSAC(X1)K-NH2) have EC50 under 20 nM?
Reply: Criterion not met

Query: Quick check: does CCCCCCCCCCCCCCCC(=O)NCCCN1C(=O)CC(SC[C@H](NC(=O)[C@H](CO)NC(=O)[C@H](CCCCN)NC(=O)[C@H](CCCNC(=N)N)NC(=O)[C@H](C)NC(=O)CNC(=O)[C@@H](NC(=O)[C@H](Cc2ccccc2)NC(=O)CNC(=O)CNC(=O)[C@@H](N)Cc2ccccc2)[C@@H](C)O)C(=O)N[C@@H](CCCNC(=N)N)C(=O)N[C@@H](CCCCN)C(N)=O)C1=O (stereo not given in full) (H-FGGFTGARKSC(X1)RK-NH2) have EC50 under 20 nM?
Reply: Criterion not met

The values you see were collected from ChEMBL document CHEMBL4665800.
